Origin of the recorded values: ChEMBL document CHEMBL1629475

test system: Escherichia coli; test: Antibacterial activity against Escherichia coli 1356 at 64 ug/ml; assay type: functional, organism-based
The source made the active and inactive calls. No cut-off for these calls is given here.
measured_parameter: Activity

chemical_string	measured_parameter	result
O=C(O)CN1C(=O)/C(=C\c2ccc(/C=C/C(=O)c3ccc(F)cc3)cc2)SC1=S	Activity	inactive
O=C(O)CN1C(=O)/C(=C\c2ccc(/C=C/C(=O)c3ccccc3)cc2)SC1=S	Activity	inactive
O=C(O)CN1C(=O)/C(=C\c2ccc(/C=C/C(=O)c3cccc(F)c3)cc2)SC1=S	Activity	inactive

---

tested on: Staphylococcus aureus; experiment: Antibacterial activity against Staphylococcus aureus QRSA CCARM 3519 after 20 hrs by twofold serial dilution technique; type: functional; conditions: QRSA CCARM 3519, 20 h
measured_parameter: MIC (µg/mL)
The figure you give is taken to be in µg/mL; do not add the unit.

IN: // returns reported MIC for input `O=C(O)CN1C(=O)/C(=C\c2ccc(/C=C/C(=O)c3ccc([N+](=O)[O-])cc3)cc2)SC1=S`
OUT: 4

IN: What measured MIC goes with `Cc1ccc(C(=O)/C=C/c2ccc(/C=C3/SC(=S)N(CC(=O)O)C3=O)cc2)c(C)c1` ?
OUT: 4

IN: Which MIC is reported for this compound? `Cc1onc(-c2ccccc2)c1C(=O)N[C@@H]1C(=O)N2[C@@H]1SC(C)(C)[C@@H]2C(=O)O`
OUT: 1

IN: Would you kindly share the measured MIC for `O=C(O)CN1C(=O)/C(=C\c2ccc(/C=C/C(=O)c3ccc(Cl)cc3)cc2)SC1=S` ?
OUT: 4

IN: # get_value(readout='MIC', item= `O=C(O)CN1C(=O)/C(=C\c2ccc(/C=C/C(=O)c3ccc(Br)cc3)cc2)SC1=S` )
OUT: 4

IN: I'd like to know its MIC. The compound in question is `O=C(O)CN1C(=O)/C(=C\c2ccc(/C=C/C(=O)c3ccc(F)cc3)cc2)SC1=S`
OUT: 4

IN: Give the measured MIC of `COc1cccc(C(=O)/C=C/c2ccc(/C=C3/SC(=S)N(CC(=O)O)C3=O)cc2)c1` .
OUT: 8

IN: Consider the compound shown here: `O=C(O)CN1C(=O)/C(=C\c2ccc(/C=C/C(=O)c3cccc(Br)c3)cc2)SC1=S` What is its recorded MIC?
OUT: 8

IN: For `O=C(O)CN1C(=O)/C(=C\c2ccc(/C=C/C(=O)c3ccc(Cl)cc3Cl)cc2)SC1=S` , what is its reported MIC?
OUT: 2

---

test system: Streptococcus mutans; assay: Antibacterial activity against Streptococcus mutans KCTC 3289 after 20 hrs by twofold serial dilution technique; format: functional; conditions: KCTC 3289, 20 h
measured_parameter: MIC (µg/mL)
Write down the numeric answer in µg/mL and omit the unit.

IN: Find the recorded MIC belonging to `Cc1ccc(C(=O)/C=C/c2ccc(/C=C3/SC(=S)N(CC(=O)O)C3=O)cc2)cc1` and report it.
OUT: 64

IN: GET /values?readout=MIC&item= `O=C(O)CN1C(=O)/C(=C\c2ccc(/C=C/C(=O)c3ccc(Cl)cc3)cc2)SC1=S`
OUT: 4

IN: For the compound `O=C(O)CN1C(=O)/C(=C\c2ccc(/C=C/C(=O)c3cccc(Br)c3)cc2)SC1=S` , what MIC is on record?
OUT: 8

IN: Query: MIC; subject: `O=C(O)CN1C(=O)/C(=C\c2ccc(/C=C/C(=O)c3ccc(Br)cc3)cc2)SC1=S`
OUT: 4

IN: What measured MIC goes with Cc1onc(-c2ccccc2)c1C(=O)N[C@@H]1C(=O)N2[C@@H]1SC(C)(C)[C@@H]2C(=O)O [OXACILLIN] ?
OUT: 1

IN: What value of measured MIC is listed for `O=C(O)CN1C(=O)/C(=C\c2ccc(/C=C/C(=O)c3cccc(Cl)c3)cc2)SC1=S` ?
OUT: 64

IN: Recorded MIC of CCn1cc(C(=O)O)c(=O)c2cc(F)c(N3CCNCC3)cc21 [NORFLOXACIN] , please.
OUT: 1

IN: Would you kindly share the measured MIC for `O=C(O)CN1C(=O)/C(=C\c2ccc(/C=C/C(=O)c3ccccc3)cc2)SC1=S` ?
OUT: 64

IN: What MIC value was documented for this compound, `Cc1ccc(C(=O)/C=C/c2ccc(/C=C3/SC(=S)N(CC(=O)O)C3=O)cc2)c(C)c1` ?
OUT: 8

IN: Look up MIC: `O=C(O)CN1C(=O)/C(=C\c2ccc(/C=C/C(=O)c3ccc([N+](=O)[O-])cc3)cc2)SC1=S`
OUT: 8

IN: Recorded MIC for `O=C(O)CN1C(=O)/C(=C\c2ccc(/C=C/C(=O)c3ccc(Cl)cc3Cl)cc2)SC1=S` , please?
OUT: 2

IN: Dear colleague, I am looking for the recorded MIC of the following compound: `O=C(O)CN1C(=O)/C(=C\c2ccc(/C=C/C(=O)c3ccc(F)cc3)cc2)SC1=S`
OUT: 4
